Source of measurements: the supplement of paper PMC6555819

tested on: PPARg:RXRa 270nM:90nM, anti-RXR (NR concentration 270 nM, RXRa partner concentration 90 nM); assay: PBM binding z-score (relative to random genomic background probes); higher = stronger binding; sequences stand for … in GC…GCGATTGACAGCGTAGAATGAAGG

{"residue.sequence": "GCTATTAGTTGAAAGGGCAAGCGAATGATTCTCG", "PBM binding z-score": 4.12}
{"residue.sequence": "TCTAGCAGGCCAGATGGTCACTCAAGAGGTACGG", "PBM binding z-score": 0.971}
{"residue.sequence": "CCTCGGAGGACAACAGGAGGGCAGAGCTGCCAGA", "PBM binding z-score": -1.25}
{"residue.sequence": "CAAACTAGGTCAAATGTCAAAGTCGAGCCAACCA", "PBM binding z-score": 9.72}
{"residue.sequence": "CCTACTGGGCCATTCAGAGGTCATAGATCATATG", "PBM binding z-score": 3.2}
{"residue.sequence": "TCTCGGAGGACACGAAAGGTCAGCGCTCGACATC", "PBM binding z-score": 3.31}

* * *

system: PPARa:RXRa (NR concentration 270 nM, RXRa partner concentration 90 nM); test: PBM binding z-score (relative to random genomic background probes); higher = stronger binding; sequences stand for … in GC…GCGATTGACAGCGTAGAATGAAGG
Label Met when PBM binding z-score is at or above 3; otherwise label Not met.

{"residue.sequence": "TCCTGTAGATCAAAGGTTAAGAAAGCCGAAGCCT", "group.label": "Met"}
{"residue.sequence": "ATCTCTAGGTAATGATAGTTCAGTGAATGCAAAT", "group.label": "Not met"}
{"residue.sequence": "CCTAATGGGCCAAAAAGGTCATTGATGCCGATAA", "group.label": "Met"}
{"residue.sequence": "GCGACTGGGGCAACGCAGGTTACCATAAGGTTGG", "group.label": "Not met"}
{"residue.sequence": "CCGATTGGGGCAGAAAGGTTACCATACCATCCGG", "group.label": "Not met"}
{"residue.sequence": "CGTCCAAGGTCAGCAAGTCAGTGAAAGCGACGTG", "group.label": "Met"}
{"residue.sequence": "ATACCAAGGTGATCGTGAGGTCGTTAATACTAAC", "group.label": "Not met"}
{"residue.sequence": "GCTGACGGGTCAAAGGTTATAGCATGAATAGAAT", "group.label": "Met"}
{"residue.sequence": "TCGAGTAGGTTAGTTGGGGCATTCAGCCAACATA", "group.label": "Not met"}
{"residue.sequence": "GGAACGAGGGCAAGTTTATAGCAGAGTTTGATGG", "group.label": "Not met"}
{"residue.sequence": "TCTTGTAGATCAAATGTTAAGAAAGCCGAAGCCT", "group.label": "Not met"}

* * *

system: THRa:RXRa (NR concentration 90 nM, RXRa partner concentration 90 nM); assay: PBM binding z-score (relative to random genomic background probes); higher = stronger binding; sequences stand for … in GC…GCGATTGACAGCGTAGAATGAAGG
Label rule, in plain words: PBM binding z-score of 3 and up is Y, under 3 is N.

{"residue.sequence": "ACACGGAGGACAAAGGTCAGAGCTACGCCAGTGA", "group.label": "Y"}
{"residue.sequence": "CCTAGTTGGTCAGAAGGTCACACACCGGATATGA", "group.label": "Y"}
{"residue.sequence": "AGAATGAGGTTCTTAAGATCAGGGAATTGCGGTC", "group.label": "N"}
{"residue.sequence": "ACAGACATGTGAGTGAAGGTAACTCAGCTGGACG", "group.label": "N"}
{"residue.sequence": "CCTAGCAGGCCAAGGTCACTCAAGCATTTCGCTT", "group.label": "Y"}

* * *

test system: PXR homodimer (NR concentration 270 nM); assay: PBM binding z-score (relative to random genomic background probes); higher = stronger binding; sequences stand for … in GC…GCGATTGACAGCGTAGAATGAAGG
Label Not met if PBM binding z-score falls below 0.6; label Met in every other case.

{"residue.sequence": "TCAGCTAGGTCAGTTGGTCAGCTAACGAGCTGCC", "group.label": "Not met"}
{"residue.sequence": "GGAACGAGGGGAAGTTGATAGCAGAGTTTGATGG", "group.label": "Not met"}
{"residue.sequence": "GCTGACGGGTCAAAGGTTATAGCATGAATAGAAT", "group.label": "Not met"}
{"residue.sequence": "ATCTCTAGGTCACAAGTTCAGTGAAAGAGAGGAC", "group.label": "Met"}
{"residue.sequence": "TGAATGAGGTTAAAGATCAGGTAACGTGGCGTCG", "group.label": "Not met"}
{"residue.sequence": "CGAACAAGGTCAAGGACAGTGAATCTCCGCACGC", "group.label": "Met"}
{"residue.sequence": "TCTATTAGTTGATTACGGCAACCGAAACAGCGGA", "group.label": "Met"}
{"residue.sequence": "CTCGAATGGTCGGTTGAGGTGAGTATACGGATAA", "group.label": "Not met"}
{"residue.sequence": "ATCGAAAGGTCGATGTGAGTATAGAGAAAGGGAA", "group.label": "Not met"}
{"residue.sequence": "CTCGAAAGGTCGTGCTCCGGTGAGTATACCAAAC", "group.label": "Not met"}
{"residue.sequence": "GCTAGCAGGGCATTTGGGTCACTCAATGACGGGC", "group.label": "Not met"}
{"residue.sequence": "CCGAGTAGGTCATGGGGCATTCAGGCAACGGTGA", "group.label": "Not met"}
{"residue.sequence": "TAGCCTATGTCATGCGGGCCAGTATAGTGTCGGC", "group.label": "Not met"}
{"residue.sequence": "AGAACGAGGGCAATGAGTTGATATCACGGGTGGC", "group.label": "Met"}
{"residue.sequence": "GTTTGTAGATCAAGGTTAAGAAAGACTAAGCTAA", "group.label": "Met"}
{"residue.sequence": "CGTTAAAGTTCAACTAAGGTAACGTAAAGCACGC", "group.label": "Met"}
{"residue.sequence": "AGAATTAGGTTATACGTAGATCAGGGAAGAAAGT", "group.label": "Met"}
{"residue.sequence": "CCTAGCAGTCCAATCTGGGTCACTCAAGGCTTGA", "group.label": "Not met"}
{"residue.sequence": "ACAGACAGGTGATGAAGTTAACTCAGGCTATCAT", "group.label": "Not met"}
{"residue.sequence": "ATCCAAAGGTCGAAGGTGAGTATACCCACCCGAA", "group.label": "Not met"}
{"residue.sequence": "AGCCAAAGTTCAGGACGAGGTAACGTAAAGCACG", "group.label": "Met"}
{"residue.sequence": "CAGCCTAGGTCAGGGCCCGTATAGGAGGAACGTT", "group.label": "Not met"}
{"residue.sequence": "TGGAGTAGGTTAGGGGCATTCAGAATGGCGTCGA", "group.label": "Met"}
{"residue.sequence": "TCGAGTAGGTTAGGGGCAGTCAGAATGGCGTCGA", "group.label": "Not met"}
{"residue.sequence": "CCTAGTTCGTCAAGGTCACACACGCTATAGGTAC", "group.label": "Met"}
{"residue.sequence": "CAAACAAGGTCAAGGTCAAAGTCGGTTTGTGCCA", "group.label": "Met"}
{"residue.sequence": "TGAATGAGGTTATAAGATCGGGGAACGTTGCAAA", "group.label": "Not met"}
{"residue.sequence": "CCTTACTGGTCACTGACAGGTTATAGCATTTGGA", "group.label": "Not met"}
{"residue.sequence": "ATATGTAGGCTATCGGGTCATTCAGTTTGCGCAT", "group.label": "Met"}
{"residue.sequence": "CCTAGCGGGCCAGGGTCACTCAAGCATTTCGCTT", "group.label": "Not met"}
{"residue.sequence": "GATACAGGGTCAGCTAGAGGCTAGAGTATGGAAA", "group.label": "Not met"}
{"residue.sequence": "CAGACTGGGGCATAAGGTTACCATAAGCCAGCCC", "group.label": "Not met"}
{"residue.sequence": "TTGAGTAGGTTAGTCGGGGCATTCAGCCAACATA", "group.label": "Met"}
{"residue.sequence": "CAGCCTAGGTCAGGGCCAGTTTAGGAGGAACGTT", "group.label": "Not met"}
{"residue.sequence": "ACTCGGAGGACAAAGGTCTGAGCTACGCCAGTGA", "group.label": "Not met"}
{"residue.sequence": "TCTCGGAGGACATGAAGGTCAGAGCTTTCCAGAG", "group.label": "Met"}
{"residue.sequence": "CCTTACGGGTCACGAGTTTATAGCACGACGAGCG", "group.label": "Met"}
{"residue.sequence": "CAAACTAGGTCAAGGTCAAAGACGGTTTGTGCCA", "group.label": "Met"}
{"residue.sequence": "TCTATTAGTTGACGGGCAACCGACGAGTCCGTTT", "group.label": "Not met"}
{"residue.sequence": "CGAAATAGGTCATTGACAGGACAGTGAATAGTAA", "group.label": "Not met"}
{"residue.sequence": "AGAATGAGGTTTCCAAAGATCAGGGAAACGCTTG", "group.label": "Not met"}
{"residue.sequence": "TCTGCTAGGTCAGCGATGGTCAGCTAATCTGCTA", "group.label": "Not met"}
{"residue.sequence": "CGGCCAAGGTCAAGGTCAGTGAAAGAGACTCGAA", "group.label": "Met"}
{"residue.sequence": "CCTCGGAGGAGAACAGGAGGTCAGAGCTGCCAGA", "group.label": "Met"}
{"residue.sequence": "TCACACAGGTGAAGGTAACTCAGGTACGCAGTCG", "group.label": "Not met"}
{"residue.sequence": "GCTAGTTGGTCAGTAAAAGGTTACACACCGGTCG", "group.label": "Not met"}
{"residue.sequence": "CGTCAAAGTTCAACTAAGGTAACGTTAAGCACGC", "group.label": "Met"}
{"residue.sequence": "CGTCCAAGGACAGCAGGTCAGTGAAAGCGACGTG", "group.label": "Not met"}
{"residue.sequence": "CGAACTAGGTCAGAACAGGTCAGTGAAGGATGAT", "group.label": "Not met"}
{"residue.sequence": "AGAACGAGGGCACGCTGAGATGATAGCAGAGTAG", "group.label": "Not met"}
